system-tested: mPGES-1 in A549 cells (Homo sapiens (Human), UniProt O14684)
Sequence (O14684 whole entry): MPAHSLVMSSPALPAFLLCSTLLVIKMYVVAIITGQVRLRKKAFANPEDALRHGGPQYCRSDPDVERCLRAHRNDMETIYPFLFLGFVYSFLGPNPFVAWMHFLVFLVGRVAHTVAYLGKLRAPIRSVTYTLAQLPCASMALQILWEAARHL
method-summary: A549 cell-based assay (PGE2 formation, 50% human serum)
condition-notes: IL-1β 5 ng/ml, 10 nM arachidonic acid, 20-24 h, read-out: mPGES-1 inhibitory effect IC50 in the cell assay
Method: Although the enzymatic assay is a high throughput assay the disadvantage is that it uses a recombinant protein which is not in its natural environment. Accordingly a cellular assay was established in which a cell line of human origin (A549) expressing the mPGES-1 protein was used. […] Concentrations of PGE2 in the cell free medium (10 μl) were measured using a commercially available HTRF kit from Cisbio (as described above). […]
pIC50: −log10 of the molar value.
measurement-type: pIC50

Look over these answered cases.
{"columns": ["compound", "system-tested", "pIC50"],
 "data": [
  ["Cn1c(Nc2c(Cl)ccc(CNC(=O)c3cncc(O)c3)c2Cl)nc2cc(C(=O)N[C@H]3CC[C@H](C(F)(F)F)CC3)c(N3CC4CC4C3)cc21 (stereo partly drawn)", "mPGES-1 in A549 cells (Homo sapiens (Human), UniProt O14684)", "< 7.00"],
  ["Cn1c(Nc2c(Cl)ccc(CNC(=O)c3n[nH]c4c3CCC4)c2Cl)nc2cc(C(=O)NCCC(F)(F)F)c(N3CCC(C(F)(F)F)CC3)cc21", "mPGES-1 in A549 cells (Homo sapiens (Human), UniProt O14684)", "< 7.00"]
]}

Req: Given the entry CN(CC1(C)CC1)c1cc2c(cc1C(=O)N[C@H]1CC[C@H](C(F)(F)F)CC1)nc(Nc1c(Cl)ccc(CNC(=O)C(C)(C)C)c1Cl)n2C , report its measured pIC50.
Resp: > 9.00

----------
system-tested: recombinant human mPGES-1 (Homo sapiens (Human), UniProt O14684)
method-summary: mPGES-1 enzyme assay (HTRF detection of PGE2)
Assay type: biochemical
condition-notes: recombinant human mPGES-1 microsomes, PGH2 2 μM, 60 seconds; read-out: mPGES-1 inhibitory effect IC50 in the enzyme assay
Experimental: Microsomes from Rosetta E. coli bacteria expressing recombinant human mPGES-1 can be derived as described below: Inoculate 5 ml LB with Ampicilin (50 μg/ml) and Chloramphenicol (34 μg/ml) with bacteria from freeze culture. […] The fluorescence of Europium cryptate (maxex=307 nm, maxem=620 nm) and d2-PGE2 (maxex=620 nm, maxem=665 nm) are measured. The extent of the specific HTRF is measured as a ratio of the emission intensity at 665 nm vs. that at 620 nm at an excitation puts of 320 nm. […]
# IC50 per entry
Answer format: numeric, nM implied, no suffix.

{"columns": ["compound", "IC50 / nM"],
 "data": [
  ["Cn1c(Nc2c(Cl)ccc(CNC(=O)C(C)(C)C)c2Cl)nc2cc(C(=O)NC3CCC(F)(F)CC3)c(N3CCC(C(F)(F)F)CC3)cc21 [Example 60]", 1],
  ["CC(C)(C)C(=O)NCc1ccc(Cl)c(Nc2nc3cc(C(=O)NCC(F)(F)C(F)(F)F)c(N4CCOCC4)cc3n2CC(F)F)c1Cl [Example 72]", 4],
  ["Cn1c(Nc2c(Cl)ccc(CNC(=O)[C@](C)(O)C(F)(F)F)c2Cl)nc2cc(C(=O)N[C@H]3CC[C@@H](C(F)(F)F)CC3)c(N3CCC(C(F)(F)F)CC3)cc21 [Example 255]", 4.3],
  ["Cn1c(Nc2c(Cl)ccc(CNC(=O)C(C)(C)C)c2Cl)nc2cc(C(=O)N[C@H]3CC[C@H](C(F)(F)F)CC3)c(N3CC(C)(O)C3)cc21 [Example 86]", 4],
  ["COC(C)CN(C)c1cc2c(cc1C(=O)N[C@H]1CC[C@H](C(F)(F)F)CC1)nc(Nc1c(Cl)ccc(CNC(=O)C(C)(C)C)c1Cl)n2C (some centres unmarked) [Example 104]", 2]
]}

Could you now look at the following compound, please?
Req: I would be grateful if you could share the reported IC50 for Cn1c(Nc2c(Cl)ccc(CNC(=O)C(C)(C)C)c2Cl)nc2cc(C(=O)N[C@H]3CC[C@H](C(F)(F)F)CC3)c(N3CC[C@@H](F)C3)c(F)c21 [Example 145] .
Resp: 3

Origin of the recorded values: patent US8674113B2
